tested_on: CYP2C9 (Homo sapiens)
Sequence (P11712 whole entry): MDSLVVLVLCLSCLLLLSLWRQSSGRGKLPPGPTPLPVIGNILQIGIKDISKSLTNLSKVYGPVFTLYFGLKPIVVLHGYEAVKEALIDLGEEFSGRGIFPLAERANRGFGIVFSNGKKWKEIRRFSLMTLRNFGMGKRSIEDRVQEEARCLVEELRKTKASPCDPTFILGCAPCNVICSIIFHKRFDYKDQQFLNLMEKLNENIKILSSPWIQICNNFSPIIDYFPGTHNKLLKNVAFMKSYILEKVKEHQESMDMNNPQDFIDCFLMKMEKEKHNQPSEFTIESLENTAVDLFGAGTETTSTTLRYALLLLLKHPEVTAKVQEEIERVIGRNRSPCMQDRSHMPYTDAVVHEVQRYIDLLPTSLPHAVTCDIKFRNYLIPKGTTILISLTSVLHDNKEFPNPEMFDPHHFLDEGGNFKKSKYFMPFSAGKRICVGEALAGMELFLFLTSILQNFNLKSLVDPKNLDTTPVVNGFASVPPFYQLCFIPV
value_type: pIC50
pIC50 here is simply -log10 of the concentration when that concentration is written in mol/L.

The recorded pIC50 for entry C=CC(=O)Nc1cccc(Oc2nc(Nc3ccc(N4CCN(C)CC4)c(F)c3)nc3[nH]ccc23)c1 equals 5.16

----------
tested_on: cyp2d1 (Rattus norvegicus)
Sequence (P10633 1-504): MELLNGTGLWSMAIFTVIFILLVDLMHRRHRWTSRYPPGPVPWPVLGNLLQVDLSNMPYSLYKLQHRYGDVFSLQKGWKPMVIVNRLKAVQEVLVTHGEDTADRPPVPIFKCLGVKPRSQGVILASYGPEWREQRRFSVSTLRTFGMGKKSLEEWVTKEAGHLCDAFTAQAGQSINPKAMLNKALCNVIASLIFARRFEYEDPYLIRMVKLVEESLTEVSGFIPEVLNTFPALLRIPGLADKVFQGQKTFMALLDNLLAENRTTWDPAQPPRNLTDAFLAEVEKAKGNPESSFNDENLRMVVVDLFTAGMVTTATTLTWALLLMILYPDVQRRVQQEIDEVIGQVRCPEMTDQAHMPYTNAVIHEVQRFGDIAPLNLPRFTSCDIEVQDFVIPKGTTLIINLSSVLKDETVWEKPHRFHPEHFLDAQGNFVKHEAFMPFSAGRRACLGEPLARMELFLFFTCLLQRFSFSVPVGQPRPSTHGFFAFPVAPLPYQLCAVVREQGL
value_type: IC50 (µM)
Report the value in µM with no unit label.

Short answer for C=CC(=O)Nc1cccc(Oc2nc(Nc3ccc(N4CCN(C)CC4)c(F)c3)nc3[nH]ccc23)c1 : IC50 was 44.4
